TGT: T1, TIGIT (UniProt Q495A1 22-141, limits assumed)
T1 construct: also called T cell immunoreceptor with Ig and ITIM domains; hTIGIT
T1 sequence (looked up): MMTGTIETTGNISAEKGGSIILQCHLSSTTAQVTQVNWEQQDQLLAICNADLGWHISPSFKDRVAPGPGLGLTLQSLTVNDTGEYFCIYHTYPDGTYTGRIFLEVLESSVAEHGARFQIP
PROCEDURE_DETAILS: SPR (Carterra)
VALUE_TYPE: log10 of koff (log10 of the value in s⁻¹)
Units before log transform: s⁻¹; reported quantity: koff; transform: log10.

Recorded result, TIGIT-471-048 (antibody, V domains shown, Variable domains only) VH: EVQLLESGGGLVQPGGSLRLSCAASGFTFSNYGVSWVRQAPGKGLEWVGYINPSRGYTYYADSVKGRFTISRDNSKNTLYLQMNSLRAEDTAVYYCARSYGGGFDYWGQGTLVTVSS VL: DIQMTQSPSSLSASVGDRVTITCGASQTIERRLNWYQQKPGKAPKLLIYDASSLHTGVPSRISGSGSGTDFTLTISSLQPEHFATYYCQQSYIIPPTFGQGTKVEIK , log10 of koff: -1.72

Recorded result, TIGIT-471-035 (antibody, V domains shown, Variable domains only) VH: EVQLLESGGGLVQPGGSLRLSCAASGFTFNAYPMTWVRQAPGKGLEWVSAITGSGGSTYYADSVKGRFTISRDNSKNTLYLQMNSLRAEDTAVYYCARVWRNHLDYWGQGTLVTVSS VL: DIQMTQSPSSLSASVGDRVTITCSGDKLGHTYTSWYQQKPGKAPKLLIYRASTLASGVPSRFSGSGSGTDFTLTISSLQPEDFATYYCQQGYTLPWTFGQGTKVEIK , log10 of koff: -1.32

Recorded result, TIGIT-471-027 (antibody, V domains shown, Variable domains only) VH: EVQLLESGGGLVQPGGSLRLSCAASGFTFSNYGVSWVRQAPGKGLEWVSWISPHGALTYYADSVKGRFTISRDNSKNTLYLQMNSLKAEDTAVYYCAKGRRRFDYWGQGTLVTVSS VL: DIQMTQSPSSLSASVGDRVTITCRASQTISSYLNWYQQKPGKAPKLLIYENNNRPSGVPSRFSGSGSGTDFTLTISSLQPEDFATYYCQQSYIIPPTFGQGTNVEIK , log10 of koff: -2.03

Recorded result, TIGIT-471-011 (antibody, V domains shown, Variable domains only) VH: EVQLLESGGGLVQPGGSLRLSCAASGFTFSNYGVSWVRQAPGKGLEWVSSIDWHGWVTYYADSVKGRFTISRDNSKNTLYLQMNSLRAEDTAVYYCVKNALRFDYWGQGTLVTVSS VL: DIQMTQSPSSLSASVGDRVTITCSASQDINKYLNWYQQKPGKAPKLLIYHTSRLQSGVPSRFSGSGSGTDFTLTISSLQPEDFATYYCQQVVWRPFTFGQGTKVEIK , log10 of koff: -0.57

Recorded result, TIGIT-471-038 (antibody, V domains shown, Variable domains only) VH: EVQLLESGGGLVQPGGSLRLSCAASGFTFSNYGVSWVRQAPGKGLEWVGYINPSRGYTYYADSVKGRFTISRDNSKNTLYLQMNSLRAEDTAVYYCARSYGGGFDYWGQGTLVTVSS VL: DIQMTQSPSSLSASVGDRVTITCRASQTIERRLNWYQQKPGKAPKLLIYDASSLHTGVSSRFSGSGSGTYFTLTISSLQAEDFATYYCQQSYIIPPTFGQGTKVEIK , log10 of koff: -1.91

Recorded result, TIGIT-471-001 (antibody, V domains shown, Variable domains only) VH: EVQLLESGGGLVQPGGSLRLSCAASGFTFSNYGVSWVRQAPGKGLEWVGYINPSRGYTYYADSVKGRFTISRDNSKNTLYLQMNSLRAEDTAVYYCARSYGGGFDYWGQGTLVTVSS VL: DIQMTQSPSSLSASVGDRVTITCRASQTIERRLNWYQQKPGKAPKLLIYDASSLHTGVPSRFSGSGSGTDFTLTISSLQPEDFATYYCQQSYIIPPTFGQGTKVEIK , log10 of koff: -1.66

Recorded result, TIGIT-471-019 (antibody, V domains shown, Variable domains only) VH: EVQLLESGGGLVQPGGSLRLSCAASGFTFSNYGVSWVRQAHGKGLEWVVYINPSRGYTYYADSVKGRFSISRDNSKNTLYLQMNSLRAEDTAVYYCARSYGGGFDYWGQGTLVTVSS VL: DIQMTQSPSSLSASVGDRVTITCRASQTIERRLNWYQQKPGKAPKLLIYDASSLHTGVPSRFSGSGSGTDFTLTISSLQPEDFATYYCQQSYIIPPTFGQGTKVEIK , log10 of koff: -1.25
